Entries and their GI50 values follow.
- System: SF-268 CNS
- run.description: NCI tumour cell line growth inhibition, 48 h

The examples below pair each entry with its known result.
compound	observed
COCCOCCOCCOCCOC(=O)OC[n+]1ccc(NC(=NCCCCCCOc2ccc(Cl)cc2)NC#N)cc1	11.9 µM
NCc1ccc(-c2nc(-c3ccc(Cl)c(O)c3)c(-c3ccncc3)[nH]2)cc1	> 25 µM
C=CCN(CC=C)C(=O)[C@H](CC)[C@@H]1CC[C@@H](C)[C@@H]([C@H](C)[C@@H](O)[C@@H](C)C(=O)[C@H](CC)C2O[C@]3(C=C[C@@H](O)[C@]4(CC[C@@](C)([C@H]5CC[C@](O)(CC)[C@H](C)O5)O4)O3)[C@H](C)C[C@@H]2C)O1 (some centres not stated)	3.27 µM

Now let's try a different one.
Challenge: What value of measured GI50 is listed for COc1ccc(/C=N\Nc2nc(SCC(C)C)nc(-c3ccc(OC)cc3)c2C#N)cc1 ?
Response given: 11.7 µM

----------
- System: MOLT-4 leukemia
- run.description: NCI tumour cell line growth inhibition, 48 h
metric.name: TGI

molecule	TGI
Nc1nc(-c2ccc(Cl)cc2)nc2c1sc(=S)n2-c1ccccc1	> 100 µM

Challenge: What value of measured TGI is listed for Clc1nc(Cl)c2ncn(CCOCCn3cnc4c(Cl)nc(Cl)nc43)c2n1 ?
Response given: > 100 µM

Challenge: Please answer likewise for Cn1nc(-c2ccccc2)c(C(=O)/C=C/c2ccc(Cl)cc2)c(N2CCOCC2)c1=O
Response given: 4.63 µM

Challenge: Please answer likewise for CC1CCC2(C)C(CC=C(C=O)C2(O)C=O)C12CO2 (stereo not given)
Response given: 5.83 µM

Challenge: Please answer likewise for COc1cc(C(=O)/C=C/c2c(C(F)(F)F)nc3ccccn23)cc(OC)c1OC
Response given: > 100 µM

Challenge: Please answer likewise for CC1CCC2C(CN(CC3=C(C(F)(F)F)OC4OC5(C)CCC6C(C)CCC3C46OO5)CC3=C(C(F)(F)F)OC4OC5(C)CCC6C(C)CCC3C46OO5)=C(C(F)(F)F)OC3OC4(C)CCC1C32OO4 (stereo not given)
Response given: 39.9 µM

Challenge: Please answer likewise for COc1ccc(S(=O)(=O)N2CCNCC2)cc1OC
Response given: > 100 µM

Challenge: Please answer likewise for COc1ccc2c(c1)C(=O)c1c-2c(=O)n(CCCN(C)C)c2cc(OC)c(OC)cc12
Response given: 12 µM

----------
- System: MCF7 breast
- run.description: NCI tumour cell line growth inhibition, 48 h; in the data active means GI50 below about 0.43 µM; inactive means the rest
The reply should be one of these categories: Yes (active), No (inactive)

molecule	discrete.label
CC(=O)N(O)c1ccc(/C=C/c2ccccc2)cc1	No
COc1ccc(C2CC(c3ccc(N(C)C)cc3)=NN2c2ccc(S(N)(=O)=O)cc2)cc1 (stereo not drawn)	No
C=CCN(CC=C)C(=O)[C@H](CC)[C@@H]1CC[C@@H](C)[C@@H]([C@H](C)[C@@H](O)[C@@H](C)C(=O)[C@H](CC)C2O[C@]3(C=C[C@@H](O)[C@]4(CC[C@@](C)([C@H]5CC[C@](O)(CC)[C@H](C)O5)O4)O3)[C@H](C)C[C@@H]2C)O1 (stereo partly drawn)	No

Challenge: Outcome? N#Cc1cc2c(cc1Cl)Sc1nnc(Nc3cccc4ccccc34)n1S2(=O)=O
Response given: No

Challenge: Please answer likewise for Clc1nc(Cl)c2ncn(CCOCCn3cnc4c(Cl)nc(Cl)nc43)c2n1
Response given: Yes

Challenge: Please answer likewise for N#Cc1cccc(Nc2ncc(-c3ccccc3)o2)c1
Response given: No

Challenge: Please answer likewise for COc1cc2c(cc1NC(=O)C(Cl)Cl)-c1ccc(NC(=O)C(Cl)Cl)cc1C2
Response given: Yes

Challenge: Please answer likewise for CSC1=Nc2c(c(C)c(-c3ccccc3)n2COC(CO)CO)C2=NC(=O)CN12
Response given: No
